Values from paper PMC9394215

- tested target: Soluble CD73 (Homo sapiens, UniProt P21589)
- Sequence (P21589 27-549 limits assumed): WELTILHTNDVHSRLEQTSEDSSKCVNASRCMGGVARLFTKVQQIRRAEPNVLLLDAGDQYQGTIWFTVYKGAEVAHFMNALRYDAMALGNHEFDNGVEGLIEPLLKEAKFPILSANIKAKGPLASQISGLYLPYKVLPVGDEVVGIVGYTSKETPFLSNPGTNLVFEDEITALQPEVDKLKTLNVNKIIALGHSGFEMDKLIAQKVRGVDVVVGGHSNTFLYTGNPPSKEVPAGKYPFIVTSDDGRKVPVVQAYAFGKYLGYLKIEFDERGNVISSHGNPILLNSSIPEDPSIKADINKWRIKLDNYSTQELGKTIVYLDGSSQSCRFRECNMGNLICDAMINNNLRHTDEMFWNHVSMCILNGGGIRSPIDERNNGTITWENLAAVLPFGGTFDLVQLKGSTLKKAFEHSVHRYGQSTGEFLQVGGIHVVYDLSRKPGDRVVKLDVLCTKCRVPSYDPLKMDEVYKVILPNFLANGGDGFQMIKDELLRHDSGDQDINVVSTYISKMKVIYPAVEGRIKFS
measurement type: IC50

## Input Requested field: IC50. Item: Cc1cc(Nc2ncc(Cl)c(Nc3ccccc3S(=O)(=O)C(C)C)n2)c(OC(C)C)cc1C1CCNCC1
## Output > 50 µM
